The measurements presented in this section are drawn from ChEMBL document CHEMBL3817791.

assay: Protein binding in human plasma
Format: ADME, cell-free
assay-setup: read-out: PPB (converted)
recorded-endpoint: fraction unbound
# print the numeric value only

Q: Endpoint output: fraction unbound of "Cc1cc(-c2cnn3c(NCC4CCOCC4)nc(Oc4ccccc4)nc23)ccc1C(=O)NC1CC1" . Value?
Result: 0.028

* * *

assay: Cmax in CD-1 nude mouse at 55 mg/ml, po
Type: ADME, organism-based
Parameters: dose 55 mg/ml, route oral
assay-setup: in vivo
recorded-endpoint: Cmax (ng/mL)
# number only, unit ng/mL dropped from output

Q: Endpoint output: Cmax of "Cc1cc(-c2cnn3c(NCC4CCOCC4)nc(Oc4ccccc4)nc23)ccc1C(=O)NC1CC1" . Value?
Result: 7600
